Source of measurements: PubChem BioAssay AID1159580

The following compounds are listed with their measured normalized growth values.
- assay overview: chemical genetic growth profiling, strain panel (AID 1159580);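 note: tested at 20 µM; growth read once vehicle control cultures reached saturation at 30 °C; 1 = growth at the plate median or of vehicle wells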
- run conditions: S. cerevisiae deletion strains, growth OD, locus YER155C, strain BEM2, stronger effect = lower value
Screen size: about 5,500 compounds; about 2,000 (36%) were called active. Not shown: some 18% with an inconclusive outcome. Some of the results follow. Where a SMILES comes first, the peptide text is derived from it.
readout kind: normalized growth

compound	recorded measurement
CC(=O)Nc1nnc(S(N)(=O)=O)s1	1.01
C=C[C@H]1CN2CC[C@H]1C[C@@H]2[C@H](O)c1ccnc2ccccc12	0.995
C=C1C2CCC3(C)C(c4ccoc4)OC(=O)CC13OC1CC(OC(C)=O)C(C)(C)C(CC(=O)OC)C12C (configuration not stated)	1.01
CCC(=O)c1ccc2c(c1)N(CC(C)N(C)C)c1ccccc1S2 (configuration not stated)	0.989
CCN(CC)C(C)CN1c2ccccc2Sc2ccccc21 (configuration not stated)	0.964
O=C(Nc1ccccc1)c1ccccc1O	0.98
CNCCCN1c2ccccc2CCc2ccccc21	1.01
CC(=O)O[C@H]1C[C@@H](OC(C)=O)C(C)(C)C2CC(=O)[C@]3(C)C(CC[C@@]4(C)[C@H](c5ccoc5)OC(=O)[C@H]5O[C@]543)[C@]21C (some centres not stated)	1.01
C=C1C(C2(C)C=CC(=O)C(C)(C)C2CC(=O)OC)CC[C@@]2(C)[C@H](c3ccoc3)OC(=O)C3OC132 (some centres not stated)	0.995
Cc1cc(C)cc(OCC2CNC(=O)O2)c1 (configuration not stated)	1.02
Cc1nc2ccccn2c(=O)c1CCN1CCC(C(=O)c2ccc(F)cc2)CC1	1.02
O=C(Nc1ccccc1)Nc1ccccc1	1.01
NCCCCC(N)C(=O)NC(Cc1ccc(O)cc1)C(=O)NC(CCCCN)C(=O)O (stereo not drawn) (H-Lys-Tyr-Lys-OH; configuration not given here)	0.985
CC(=O)Nc1ccccc1	0.999
O=c1[nH]cnc2[nH]ncc12	1.01
CCCCSP(=O)(SCCCC)SCCCC	1.01
CCCCCC1C(=O)CCC1CC(=O)O (configuration not stated)	0.989
CC(CN1c2ccccc2Sc2cccnc21)N(C)C (configuration not stated)	1.01
COc1cc(S(C)=O)ccc1-c1nc2ncccc2[nH]1 (configuration not stated)	0.978
CC(CN1c2ccccc2Sc2ccccc21)N(C)C (configuration not stated)	0.987
COc1c(Cl)ccc(Cl)c1C(=O)O	1.01
C=C1C2CC[C@@]3(C)[C@H](c4ccoc4)OC(=O)C[C@]13O[C@H]1CC(=O)C(C)(C)C(CC(=O)OC)[C@@]21C (some centres not stated)	1.01

* * *

- assay overview: chemical genetic growth profiling, strain panel (AID 1159580)
- run conditions: S. cerevisiae deletion strains, growth OD, locus YHR030C, strain SLT2, stronger effect = lower value
In all, about 5,500 compounds went through this assay and about 2,000 (36%) were called active. Not shown: some 18% with an inconclusive outcome. The list shows a part of the results.
The following compounds are listed with their measured normalized growth values.
readout kind: normalized growth

> print(dat)
                                   compound  recorded.measurement
1  O=[N+]([O-])c1ccc(-c2csc(Nc3ccncc3)n2)cc1          1 (inactive)
2  FC(F)(F)c1cc(-n2c(CCc3nc(-c4ccc(Cl)cc4)no3)n[nH]c2=S)cc(C(F)(F)F)c1      0.993 (inactive)
3        COc1ccc(C=C2C(=O)NC(=S)NC2=O)cc1Br       1.01 (inactive)
4  C=C1C2CC[C@@]3(C)[C@H](c4ccoc4)OC(=O)C[C@]13O[C@H]1CC(=O)C(C)(C)C(CC(=O)OC)[C@@]21C (some centres undefined)      0.996 (inactive)
5  C=C1[C@H]2CC[C@@]3(C)[C@H](c4ccoc4)OC(=O)C[C@]13O[C@H]1C[C@H](O)C(C)(C)[C@H](CC(=O)OC)[C@]12C      0.986 (inactive)
6  CC(=O)Nc1ccc(S(=O)(=O)NC2Cc3ccccc3C2)cc1       1.06 (inactive)
7  OC1(c2ccc(Cl)cc2)CSc2nc3cc(C(F)(F)F)ccc3n21 (centres undefined)       1.02 (inactive)
8  C=C1C2CCC3(C)C(c4ccoc4)OC(=O)CC13OC1CC(OC(C)=O)C(C)(C)C(CC(=O)OC)C12C (centres undefined)       1.01 (inactive)
9                 COC(=O)CCCOc1ccc(Cl)cc1Cl      0.994 (inactive)

* * *

- assay overview: chemical genetic growth profiling, strain panel (AID 1159580);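 note: tested at 20 µM; growth read once vehicle control cultures reached saturation at 30 °C; 1 = growth at the plate median or of vehicle wells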
- run conditions: S. cerevisiae deletion strains, growth OD, locus YML124C, strain tub3, stronger effect = lower value
Out of some 5,500 compounds screened, about 2,000 (36%) were called active. Not shown: some 18% with an inconclusive outcome. The list shows a part of the results.

compound	normalized growth
CC(CCC(=O)O)[C@H]1CCC2C3CC[C@@H]4C[C@H](O)CC[C@]4(C)C3CC[C@@]21C (stereo partly specified)	1.05
NNCCc1ccccc1	0.986
CNC(=O)Oc1ccc2c(c1)[C@]1(C)CCN(C)[C@@H]1N2C	1.01
CCCC(CCC)C(=O)O	0.95
CN(C)N=Nc1nc[nH]c1C(N)=O	1
CC(C)CCCC(C)C1CCC2C3CC[C@H]4CCCC[C@]4(C)C3CC[C@]12C (stereo partly specified)	1
CCN(CCCc1ccccc1)CCCc1ccccc1	1.02
CC(CCC(=O)O)[C@H]1CCC2C3C(C[C@H](O)[C@@]21C)[C@@]1(C)CC[C@@H](O)C[C@H]1C[C@H]3O (stereo partly specified)	1.01
O=c1cc(-c2ccccc2)oc2cc(O)c(O)c(O)c12	0.424
C=C[C@H]1CN2CC[C@H]1C[C@@H]2[C@H](O)c1ccnc2ccccc12	0.986
CC12CC3CC(C)(C1)CC(N)(C3)C2	1.01
CC[C@H](CCC(C)[C@H]1CCC2C3CCC4C[C@@H](O)CC[C@]4(C)C3CC[C@@]21C)C(C)C (stereo partly specified)	1.01
CC1=C2[C@H]3OC(=O)[C@@H](C)[C@@H]3CC[C@@]2(C)C=CC1=O	1.02
COC(=O)CCC(=O)O[C@H]1CCC2(C)C(CCC3C2C(=O)[C@@H](O)C2(C)C3CC3OC4(CCC(C)CO4)[C@@H](C)C32)C1 (stereo partly specified)	0.998
COc1cc(OC)c(OC)cc1C=O	0.984
COc1cc2c(cc1-c1cc3cc4ccoc4cc3oc1=O)OCO2	0.975
OC1=Cc2c(O)cc(O)cc2OC1(O)c1ccc(O)c(O)c1 (stereo unspecified)	1
Nc1ccn(C2O[C@H](CO)[C@@H](O)[C@H]2O)c(=O)n1 (stereo partly specified)	1.01
COc1c2ccccc2nc2occc12	0.978
CN[C@@H]1[C@H](OC2[C@H](O[C@H]3[C@H](O)[C@@H](O)[C@H](N=C(N)N)[C@@H](O)[C@@H]3N=C(N)N)O[C@@H](C)[C@]2(O)C=O)O[C@@H](CO)[C@H](O)[C@H]1O (stereo partly specified)	1.02
CC(CCC(=O)O)[C@H]1CCC2C3CC[C@@H]4C[C@H](O)CC[C@]4(C)C3C[C@H](O)[C@@]21C (stereo partly specified)	1.01

* * *

- assay overview: chemical genetic growth profiling, strain panel (AID 1159580);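 note: tested at 20 µM; growth read once vehicle control cultures reached saturation at 30 °C; 1 = growth at the plate median or of vehicle wells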
- run conditions: S. cerevisiae deletion strains, growth OD, locus YDL005C, strain med2, stronger effect = lower value
In all, about 5,500 compounds went through this assay and about 2,000 (36%) were called active. Not shown: some 18% with an inconclusive outcome. Some of the results follow.

molecule	normalized growth
NNCCc1ccccc1	1.01
CN1CCN(C2=Nc3ccccc3Oc3ccc(Cl)cc32)CC1	0.972
CC(=O)OCC(=O)[C@@]1(O)[C@H](OC(C)=O)CC2C3CCC4=CC(=O)C=C[C@]4(C)[C@@]3(F)[C@@H](O)C[C@@]21C (some centres undefined)	0.993
C[C@@H]1O[C@@H](O[C@H]2C[C@@H](O)[C@]3(CO)C4C(CC[C@]3(O)C2)[C@@]2(O)CC[C@H](C3=CC(=O)OC3)[C@@]2(C)C[C@H]4O)[C@H](O)[C@H](O)[C@H]1O (some centres undefined)	1.02
CN(C(=O)CN(CCO)CC(=O)N(C)C(C)(C)Cc1ccccc1)C(C)(C)Cc1ccccc1	1
N#C/C(=C\c1cccc(O)c1)C(=O)O	0.999
O=c1cc(-c2ccccc2)oc2cc(O)c(O)cc12	0.977
Cc1cc(O)c(C=O)c2c1C(=O)Oc1c(COC(=O)/C=C/C(=O)O)c(O)c(C(=O)O)c(C)c1O2	1.02
c1ccc2nc(N3CCNCC3)ccc2c1	1.01

* * *

- assay overview: chemical genetic growth profiling, strain panel (AID 1159580);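 note: tested at 20 µM; growth read once vehicle control cultures reached saturation at 30 °C; 1 = growth at the plate median or of vehicle wells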
- run conditions: S. cerevisiae deletion strains, growth OD, locus YDL101C, strain DUN1, stronger effect = lower value
Screen size: about 5,500 compounds; about 2,000 (36%) were called active. About 18% were inconclusive and are not listed. The list shows a part of the results.
Rule for this label: Fulfilled means normalized growth is less than 1; Not fulfilled means normalized growth is at least 1.

compound	label class
CC(CCC(=O)O)[C@H]1CCC2C3CC[C@@H]4C[C@H](O)CC[C@]4(C)C3CC[C@@]21C (stereo not given in full)	Fulfilled
CC(CN1c2ccccc2Sc2cccnc21)N(C)C (stereo not given)	Not fulfilled
O=C(O)Cc1cc(I)c(Oc2cc(I)c(O)c(I)c2)c(I)c1	Fulfilled
O=C(Nc1ccccc1)c1ccccc1O	Fulfilled
CC(CN1c2ccccc2Sc2ccccc21)N(C)C (stereo not given)	Fulfilled
